pKd overview
- tested-target: T1, rhesus serum albumin (rhesus, UniProt Q28522 17-600)
- T1 construct: also called RhSA
- measurement-notes: SPR, single cycle kinetics, pH 7.4
pKd: −log10 of the molar value.

binder	pKd
Rh34-H4 (VHH) VHH: QVQLVESGGGLVQPGGSLRLSCAASGRTISLYAVGWFRRAPGKEREFVAAISWTDSSTYYADSVKGRFTISRDNSKNTLYLQMNSLRAEDTAVYYCAADVSIRGLQKYEYDYWGQGTLVTVSS	6.13
M79-H5 (VHH) VHH: QVQLVESGGGLVQPGGSLRLSCAASGSTFSSSSVGWYRQAPGQQRELVAAITSGGSTNTADSVKGRFTISRDNAKNTVYLQMNSLRAEDTAVYYCNVAGRNWVPISRYSPGPYWGQGTLVTVSS	7.06
